Quick reference: inhibition of aggregation of the listed items.
Experiment: reduction of polyQ htt aggregates in cells – imaging, exon1htt(103Q)mCFP cells, high-content imaging, primary screen (AID 483);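 also: compound exposure lasted 3 days before fixation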
Reported conditions: exon1htt(103Q)mCFP cell line, aggregate imaging, at 2 µM; hits give high values

>  <Compound>
CC[C@@H](CO)NC(=O)[C@@H]1C=C2c3cccc4c3c(cn4C)C[C@H]2N(C)C1

>  <inhibition of aggregation / %>
-7.9

$$$$
>  <Compound>
CCC(=NCC1CCCO1)c1c(O)n(Cc2ccccc2)c(=O)[nH]c1=O (stereo unspecified)

>  <inhibition of aggregation / %>
6.5

$$$$
>  <Compound>
CC1=C(C(=O)OC(C)C)[C@]2(C(=O)N(CC(N)=O)c3ccccc32)C(C#N)=C(N)O1

>  <inhibition of aggregation / %>
-10.5

$$$$
>  <Compound>
COC(=O)CC1(Cc2ccccc2)C(=O)NC(=O)NC1=O

>  <inhibition of aggregation / %>
12.4

$$$$
>  <Compound>
C[C@]12CCC(=O)C=C1CC[C@@H]1[C@@H]2CC[C@]2(C)C(=O)CC[C@@H]12

>  <inhibition of aggregation / %>
16.3

$$$$
>  <Compound>
COc1ccc(CCn2c(O)c(C=NCc3cccnc3)c(=O)[nH]c2=O)cc1OC

>  <inhibition of aggregation / %>
-17.3

$$$$
>  <Compound>
NCCc1ccc(O)cc1

>  <inhibition of aggregation / %>
11.4

$$$$
>  <Compound>
Cc1ccc(C)c(NC2=NCCCS2)c1

>  <inhibition of aggregation / %>
15.3

$$$$
>  <Compound>
O=C(CN1C(=O)CN=C(c2ccccc2)c2ccccc21)NCc1ccco1

>  <inhibition of aggregation / %>
-13.4

$$$$
>  <Compound>
CCOC(=O)C(O)(c1ccc(N(CC)C(=O)OC)cc1)C(F)(F)F (stereo unspecified)

>  <inhibition of aggregation / %>
-9.5

$$$$
>  <Compound>
O=c1c2ccccc2[se]n1-c1ccccc1

>  <inhibition of aggregation / %>
7.2

$$$$

* * *

Experiment: loss of swimming-algae plug formation – whole organism, Chlamydomonas reinhardtii, WT vs cilia-less mutant, absorbance, 96-well, primary screen (AID 463189);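 also: 0% = wild type cc124 cells in DMSO and 100% = ciliumless bld1 mutant cells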
Reported conditions: Chlamydomonas reinhardtii gravitaxis, OD600 absorbance, 2 days; at 10 µM; hits give high values
Readout label: inhibition (%)

>  <Compound>
c1ccc2c3c([nH]c2c1)CNCC3

>  <Value reported>
24.5

$$$$
>  <Compound>
N[C@@H](Cn1cc(I)c(=O)[nH]c1=O)C(=O)O

>  <Value reported>
9.47

$$$$
>  <Compound>
O=C1CCCN1CC#CCN1CCCC1

>  <Value reported>
7.02

$$$$
>  <Compound>
O=c1[nH]c(=O)n(CCc2ccccc2)c(O)c1C=NCCN1CCNCC1

>  <Value reported>
-4.22

$$$$
>  <Compound>
CNC(=O)N(C)c1nnc(C(C)(C)C)s1

>  <Value reported>
119

$$$$
>  <Compound>
O=c1[nH]c(=O)n(CCc2ccccc2)c(O)c1C=NCCCn1ccnc1

>  <Value reported>
35.6

$$$$
>  <Compound>
CCCSP1(=S)NCCCO1 (stereo not drawn)

>  <Value reported>
20.8

$$$$
>  <Compound>
CC[N+]1(C)CCCC(OC(=O)C(O)(c2ccccc2)c2ccccc2)C1 (stereo not drawn)

>  <Value reported>
-2.15

$$$$
>  <Compound>
CCCN(CCC)C(=O)Cc1c(-c2ccc(Cl)cc2)nc2c(Cl)cc(Cl)cn12

>  <Value reported>
-9.74

$$$$
>  <Compound>
NNC(=O)c1ccc(O)cc1

>  <Value reported>
-10.7

$$$$
>  <Compound>
CNCCc1c[nH]c2ccccc12

>  <Value reported>
1.04

$$$$
>  <Compound>
NC1CCc2cc(O)c(O)cc2C1 (stereo not drawn)

>  <Value reported>
-5.92

$$$$
>  <Compound>
CN1CCc2nc3sc(C#N)c(N)c3c(-c3cccs3)c2C1

>  <Value reported>
-2.74

$$$$

* * *

Quick reference: fluorescence slope of the listed items.
Tested system: Voltage-gated potassium channel subunit beta-2 (Rattus norvegicus)
Experiment: inhibitors of rat Kvbeta2 reductase activity – biochemical, NADPH fluorescence, primary screen (AID 622);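 also: slope of raw intensity against log time taken from 70 to 1610 s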
Reported conditions: recombinant KvBeta, 4-cyanobenzaldehyde reduction, at 10 µM, hits give high values
Readout label: fluorescence slope

>  <Compound>
CCOC(=O)c1cc2c(cn1)[nH]c1ccccc12

>  <Readout label>
fluorescence slope

>  <Value reported>
-0.368

$$$$
>  <Compound>
CN1CCc2nc(SCC(=O)OC(C)(C)C)c(C#N)cc2C1

>  <Readout label>
fluorescence slope

>  <Value reported>
-0.316

$$$$
>  <Compound>
CC12CCCCC1=[N+]([O-])CN2O (configuration not stated)

>  <Readout label>
fluorescence slope

>  <Value reported>
-0.554

$$$$
>  <Compound>
NC(=O)OCCSc1nnc(-c2cccc(C(N)=S)c2)o1

>  <Readout label>
fluorescence slope

>  <Value reported>
-0.541

$$$$
>  <Compound>
CC(C)OCCCNC(=O)c1c(N)n(CC2CCCO2)c2nc3ccccc3nc12 (configuration not stated)

>  <Readout label>
fluorescence slope

>  <Value reported>
-0.0369

$$$$
>  <Compound>
CCN(CC)c1ccc(N=Cc2c(O)n(-c3cc(OC)ccc3OC)c(=O)[nH]c2=O)cc1

>  <Readout label>
fluorescence slope

>  <Value reported>
-0.37

$$$$
>  <Compound>
C[C@H]1CCCC(=O)CCCCCc2cc(O)cc(O)c2C(=O)O1

>  <Readout label>
fluorescence slope

>  <Value reported>
-0.439

$$$$
>  <Compound>
COc1ccc(OC)c(C(O)C(C)N)c1 (configuration not stated)

>  <Readout label>
fluorescence slope

>  <Value reported>
-0.51

$$$$
>  <Compound>
CCCCNC(=O)c1c(N)n(CCCOC)c2nc3ccccc3nc12

>  <Readout label>
fluorescence slope

>  <Value reported>
-0.245

$$$$
>  <Compound>
CC(C)CC12CN3CCN(CC(C3)/C1=N/O)C2

>  <Readout label>
fluorescence slope

>  <Value reported>
-0.496

$$$$
>  <Compound>
CN1[C@@H]2CC[C@H]1CC(OC(=O)C1C=Nc3ccccc31)C2 (some centres not stated)

>  <Readout label>
fluorescence slope

>  <Value reported>
-0.448

$$$$
>  <Compound>
Cc1c2ccncc2c(C)c2c1[nH]c1ccccc12

>  <Readout label>
fluorescence slope

>  <Value reported>
-0.464

$$$$
>  <Compound>
CN(C)[C@@H]1C(=O)C(C(N)=O)=C(O)[C@@]2(O)C(=O)C3=C(O)c4c(O)cccc4[C@@](C)(O)[C@H]3C[C@@H]12

>  <Readout label>
fluorescence slope

>  <Value reported>
-0.433

$$$$
>  <Compound>
N#Cc1ccccc1Cn1cc(C(=O)c2ccco2)c2ccccc21

>  <Readout label>
fluorescence slope

>  <Value reported>
-0.254

$$$$
>  <Compound>
CCCCOc1ccc(CN2CCN(CCO)CC2)cc1

>  <Readout label>
fluorescence slope

>  <Value reported>
-0.43

$$$$
>  <Compound>
NC(=O)CSP(=O)(c1ccccc1)c1ccccc1

>  <Readout label>
fluorescence slope

>  <Value reported>
-0.541

$$$$
>  <Compound>
CCOC(=O)C(O)(c1ccc(N(CC)C(=O)OC)cc1)C(F)(F)F (configuration not stated)

>  <Readout label>
fluorescence slope

>  <Value reported>
-0.425

$$$$
>  <Compound>
CCCC(C)C1C(C#N)=C(N)Oc2c1c(=O)oc1ccccc21 (configuration not stated)

>  <Readout label>
fluorescence slope

>  <Value reported>
-0.422

$$$$
>  <Compound>
CC#CP(=O)(OCC)C(O)(c1ccccc1)C(F)(F)F (configuration not stated)

>  <Readout label>
fluorescence slope

>  <Value reported>
-0.621

$$$$
>  <Compound>
COc1ccccc1-n1c(O)c(C=NCc2ccc3c(c2)OCO3)c(=O)[nH]c1=O

>  <Readout label>
fluorescence slope

>  <Value reported>
-0.611

$$$$
>  <Compound>
C=CCOC(=O)COc1cc(C)cc2oc(=O)c3c(c12)CCC3

>  <Readout label>
fluorescence slope

>  <Value reported>
-0.254

$$$$
>  <Compound>
Cc1cc(N2C(=O)C3CCCN3C2c2cccc(Cl)c2)no1 (configuration not stated)

>  <Readout label>
fluorescence slope

>  <Value reported>
-0.543

$$$$
>  <Compound>
CC(=O)N1CC(=O)Nc2ccc(Cl)cc2C1c1ccc(F)cc1 (configuration not stated)

>  <Readout label>
fluorescence slope

>  <Value reported>
-0.569

$$$$
>  <Compound>
CCCCc1nc2ccccc2c(=O)n1-c1ccccc1O

>  <Readout label>
fluorescence slope

>  <Value reported>
-0.36

$$$$
>  <Compound>
CCC(=NCCN1CCCCC1)c1c(O)n(C)c(=O)n(C)c1=O

>  <Readout label>
fluorescence slope

>  <Value reported>
-0.517

$$$$
>  <Compound>
CSc1ccc(C(=O)C(C)(C)N2CCOCC2)cc1

>  <Readout label>
fluorescence slope

>  <Value reported>
-0.577

$$$$
>  <Compound>
COc1ccc(Cc2nccc3cc(OC)c(OC)cc23)cc1OC

>  <Readout label>
fluorescence slope

>  <Value reported>
-0.442

$$$$
>  <Compound>
O=c1[nH]c(=O)n(-c2cccc(Cl)c2)c(O)c1C=NCCN1CCCCC1

>  <Readout label>
fluorescence slope

>  <Value reported>
-0.435

$$$$
>  <Compound>
COC(=O)c1ccccc1-n1c(C)nc2ccccc2c1=O

>  <Readout label>
fluorescence slope

>  <Value reported>
-0.605

$$$$
>  <Compound>
Cc1ccc(C)c(C2(O)CC(C)N(C)CC2C)c1 (configuration not stated)

>  <Readout label>
fluorescence slope

>  <Value reported>
-0.458

$$$$
>  <Compound>
CCOP(=S)(OCC)c1ccc(N(C)C)cc1

>  <Readout label>
fluorescence slope

>  <Value reported>
-0.572

$$$$
>  <Compound>
Cc1ccc2nc(N3CCN(C)CC3)[nH]c2c1

>  <Readout label>
fluorescence slope

>  <Value reported>
-0.506

$$$$
>  <Compound>
COc1ccc(OC)c(N2C(=O)NC(=O)C(CCc3ccncc3)(CCc3ccncc3)C2=O)c1

>  <Readout label>
fluorescence slope

>  <Value reported>
-0.329

$$$$
>  <Compound>
C[C@H]1CCC/C=C/C2C[C@H](O)CC2[C@H](O)/C=C/C(=O)O1 (some centres not stated)

>  <Readout label>
fluorescence slope

>  <Value reported>
-0.473

$$$$
>  <Compound>
CCN1CCN(C(=O)COc2cc(=O)n(CC)c3ccccc23)CC1

>  <Readout label>
fluorescence slope

>  <Value reported>
-0.386

$$$$
>  <Compound>
Clc1ccc(COC(Cn2ccnc2)c2ccc(Cl)cc2Cl)cc1 (configuration not stated)

>  <Readout label>
fluorescence slope

>  <Value reported>
-0.51

$$$$
>  <Compound>
O=C1NCCN2CCCC12 (configuration not stated)

>  <Readout label>
fluorescence slope

>  <Value reported>
-0.497

$$$$
>  <Compound>
CC(C)OCCCNC(=O)c1c(N)n(Cc2cccs2)c2nc3ccccc3nc12

>  <Readout label>
fluorescence slope

>  <Value reported>
-0.212

$$$$
>  <Compound>
Clc1ccc(COC(Cn2ccnc2)c2ccc(Cl)cc2Cl)c(Cl)c1 (configuration not stated)

>  <Readout label>
fluorescence slope

>  <Value reported>
-0.515

$$$$
>  <Compound>
COc1ccccc1OCCCn1cc(C(=O)c2ccco2)c2ccccc21

>  <Readout label>
fluorescence slope

>  <Value reported>
-0.309

$$$$
>  <Compound>
CN1C[C@H](CNC(=O)OCc2ccccc2)C[C@@H]2c3cccc4c3c(cn4C)C[C@H]21

>  <Readout label>
fluorescence slope

>  <Value reported>
-0.508

$$$$
>  <Compound>
COc1cccc(-n2c(C)nc3ccccc3c2=O)c1

>  <Readout label>
fluorescence slope

>  <Value reported>
-0.353

$$$$
>  <Compound>
COc1ccc(-n2c(SC)nc3ccccc3c2=O)cc1

>  <Readout label>
fluorescence slope

>  <Value reported>
-0.492

$$$$
>  <Compound>
Cc1ccc(CC2C(=O)N(C)C(=O)N(C)C2=O)s1

>  <Readout label>
fluorescence slope

>  <Value reported>
-0.471

$$$$
>  <Compound>
O=C1C2CCN(CC2)[C@@H]1Cc1ccc2ccccc2c1O

>  <Readout label>
fluorescence slope

>  <Value reported>
-0.498

$$$$
>  <Compound>
O=C1CC(N2CCC(n3c(=O)[nH]c4ccccc43)CC2)C(=O)N1c1ccc(F)cc1 (configuration not stated)

>  <Readout label>
fluorescence slope

>  <Value reported>
-0.315

$$$$
>  <Compound>
COc1cc2[nH]c(=O)n(-c3cccc(Cl)c3)c(=O)c2cc1OC

>  <Readout label>
fluorescence slope

>  <Value reported>
-0.467

$$$$
